assay-system: human P2Y12 receptor (Homo sapiens)
Sequence (Q9H244 whole entry): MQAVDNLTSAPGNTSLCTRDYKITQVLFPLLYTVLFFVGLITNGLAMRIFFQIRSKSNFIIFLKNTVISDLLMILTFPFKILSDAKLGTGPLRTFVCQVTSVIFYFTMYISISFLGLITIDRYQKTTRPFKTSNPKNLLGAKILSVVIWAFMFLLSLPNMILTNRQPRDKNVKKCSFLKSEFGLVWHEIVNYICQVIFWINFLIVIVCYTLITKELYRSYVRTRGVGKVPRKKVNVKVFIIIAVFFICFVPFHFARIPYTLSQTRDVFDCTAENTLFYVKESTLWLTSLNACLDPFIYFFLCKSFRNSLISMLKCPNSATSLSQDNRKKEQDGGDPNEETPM
protocol-text: P2Y12 receptor binding assay
conditions-used: CHO cells with recombinant human P2Y12 receptor; tritium-labeled 2-methyl-S-ADP; 2 hours at RT
endpoint: IC50 (nM)
Value expressed in nM; do not type the unit.

Below, 3 molecules whose answers are already recorded.
> print(dat)
                              record.smiles  reported
1  CCOC(=O)N1CCN(C(=O)[C@H](CCC(=O)O)NC(=O)c2nc(-c3ccccc3)cc(C3CC3)c2OC)CC1       510
2  CCOC(=O)N1CCN(C(=O)[C@H](CCC(=O)O)NC(=O)c2cc(CCC(C)(C)O)cc(-c3ccccc3)n2)CC1        96
3  CCOC(=O)N1CCN(C(=O)[C@H](CCC(=O)O)NC(=O)c2cc(Cl)cc(-c3ccccc3)n2)CC1        34

Data request: Item under review: `CCOC(=O)N1CCN(C(=O)[C@H](Cc2nn[nH]n2)NC(=O)c2cc(-c3ccccc3)cc(-c3ccccc3)n2)CC1` . Reported IC50?
Data returned: 40
